// values below are Ki; system is hCA IV (Homo sapiens, UniProt P22748)
Sequence (P22748 19-284 limits assumed): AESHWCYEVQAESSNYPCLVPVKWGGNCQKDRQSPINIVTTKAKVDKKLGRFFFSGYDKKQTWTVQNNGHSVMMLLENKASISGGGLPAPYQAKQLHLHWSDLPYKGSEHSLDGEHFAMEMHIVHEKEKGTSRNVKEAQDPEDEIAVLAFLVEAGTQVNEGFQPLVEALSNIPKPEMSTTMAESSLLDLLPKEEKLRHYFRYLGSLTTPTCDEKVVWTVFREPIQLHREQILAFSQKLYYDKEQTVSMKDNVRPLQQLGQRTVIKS
I'd appreciate it if you wrote the number followed by its unit.

q: Field request: Ki | item: `NS(=O)(=O)c1ccc(Nc2nc3nccc(-c4ccc([N+](=O)[O-])cc4)n3n2)cc1`
a: 3260 nM

q: Cool, now `NS(=O)(=O)c1ccc(Nc2nc3nccc(-c4cccc(Br)c4)n3n2)cc1`
a: 4330 nM

q: Cool, now `NS(=O)(=O)c1ccc(Nc2nc3nccc(-c4ccc(F)cc4)n3n2)cc1`
a: 993 nM

q: Cool, now `COc1ccccc1-c1ccnc2nc(Nc3ccc(S(N)(=O)=O)cc3)nn12`
a: 6320 nM

q: Cool, now `Cc1ccccc1-c1ccnc2nc(Nc3ccc(S(N)(=O)=O)cc3)nn12`
a: 8820 nM

q: Cool, now `NS(=O)(=O)c1ccc(Nc2nc3nccc(-c4ccc(I)cc4)n3n2)cc1`
a: 8850 nM

q: Cool, now `NS(=O)(=O)c1ccc(Nc2nc3nccc(-c4cccnc4)n3n2)cc1`
a: 333 nM

q: Cool, now `COc1cc(OC)cc(-c2ccnc3nc(Nc4ccc(S(N)(=O)=O)cc4)nn23)c1`
a: 1010 nM

q: Cool, now `NS(=O)(=O)c1ccc(Nc2nc3nccc(-c4ccc(Br)cc4)n3n2)cc1`
a: 5210 nM

q: Cool, now `NS(=O)(=O)c1ccc(Nc2nc3nccc(-c4cccc([N+](=O)[O-])c4)n3n2)cc1`
a: 690 nM

q: Cool, now `COc1ccc(-c2ccnc3nc(Nc4ccc(S(N)(=O)=O)cc4)nn23)cc1OC`
a: 1520 nM

q: Cool, now `NS(=O)(=O)c1ccc(Nc2nc3nccc(-c4cccc(Cl)c4)n3n2)cc1`
a: 5980 nM

q: Cool, now `Cc1cccc(-c2ccnc3nc(Nc4ccc(S(N)(=O)=O)cc4)nn23)c1`
a: 4850 nM

q: Cool, now `NS(=O)(=O)c1ccc(Nc2nc3nccc(-c4c(F)cccc4F)n3n2)cc1`
a: 703 nM

q: Cool, now `NS(=O)(=O)c1ccc(Nc2nc3nccc(-c4ccncc4)n3n2)cc1`
a: 726 nM

q: Cool, now `NS(=O)(=O)c1ccc(Nc2nc3nccc(-c4c(F)ccc(F)c4F)n3n2)cc1`
a: 662 nM

q: Cool, now `NS(=O)(=O)c1ccc(Nc2nc3nccc(-c4ccccc4F)n3n2)cc1`
a: 920 nM

q: Cool, now `COc1cccc(-c2ccnc3nc(Nc4ccc(S(N)(=O)=O)cc4)nn23)c1`
a: 559 nM

q: Cool, now `NS(=O)(=O)c1ccc(Nc2nc3nccc(-c4ccccc4)n3n2)cc1`
a: 1330 nM

q: Cool, now `COc1ccc(-c2ccnc3nc(Nc4ccc(S(N)(=O)=O)cc4)nn23)cc1`
a: 2000 nM

q: Cool, now `NS(=O)(=O)c1ccc(Nc2nc3nccc(-c4ccccc4Cl)n3n2)cc1`
a: 6480 nM

q: Cool, now `NS(=O)(=O)c1ccc(Nc2nc3nccc(-c4cccc(F)c4)n3n2)cc1`
a: 853 nM

q: Cool, now `Cc1ccc(-c2ccnc3nc(Nc4ccc(S(N)(=O)=O)cc4)nn23)cc1`
a: 2290 nM

q: Cool, now `CCOc1ccc(-c2ccnc3nc(Nc4ccc(S(N)(=O)=O)cc4)nn23)cc1`
a: 3650 nM

q: Cool, now `NS(=O)(=O)c1ccc(Nc2nc3nccc(-c4cccs4)n3n2)cc1`
a: 2660 nM

q: Cool, now `NS(=O)(=O)c1ccc(Nc2nc3nccc(-c4ccccc4[N+](=O)[O-])n3n2)cc1`
a: 3980 nM

q: Cool, now `NS(=O)(=O)c1ccc(Nc2nc3nccc(-c4ccc(Cl)cc4)n3n2)cc1`
a: 4000 nM
